Item-by-item account of Fold IC50 increase relative to wild-type
Target: HIV-1 JR-CSF Env R419A (HIV-1 (isolate JR-CSF)) (UniProt P20871)
Test: cell-based or functional assay
reported.metric: Fold IC50 increase relative to wild-type

[[record]]
binder = "PGT-125 (antibody, V domains shown) VH: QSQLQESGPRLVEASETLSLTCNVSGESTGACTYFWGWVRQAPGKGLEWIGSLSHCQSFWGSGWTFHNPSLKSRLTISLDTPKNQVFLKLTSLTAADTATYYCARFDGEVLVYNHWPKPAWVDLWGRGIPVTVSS VL: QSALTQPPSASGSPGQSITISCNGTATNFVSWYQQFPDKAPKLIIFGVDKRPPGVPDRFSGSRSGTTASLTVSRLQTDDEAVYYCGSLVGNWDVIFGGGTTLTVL"
reported_metric = "Fold IC50 increase relative to wild-type"
observed = "1 fold"

[[record]]
binder = "PGT-127 (antibody, V domains shown) VH: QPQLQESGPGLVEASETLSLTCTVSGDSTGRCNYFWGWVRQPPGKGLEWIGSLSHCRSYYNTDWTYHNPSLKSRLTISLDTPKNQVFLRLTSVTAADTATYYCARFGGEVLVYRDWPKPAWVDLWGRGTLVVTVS VL: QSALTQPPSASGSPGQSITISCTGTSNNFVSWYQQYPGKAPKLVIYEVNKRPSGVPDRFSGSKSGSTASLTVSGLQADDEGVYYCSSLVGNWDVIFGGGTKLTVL"
reported_metric = "Fold IC50 increase relative to wild-type"
observed = "2.5 fold"

[[record]]
binder = "PGT-128 (antibody, V domains shown) VH: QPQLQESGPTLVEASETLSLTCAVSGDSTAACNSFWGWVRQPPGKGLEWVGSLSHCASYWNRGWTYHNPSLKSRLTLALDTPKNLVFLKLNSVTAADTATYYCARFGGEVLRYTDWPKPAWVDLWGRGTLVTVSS VL: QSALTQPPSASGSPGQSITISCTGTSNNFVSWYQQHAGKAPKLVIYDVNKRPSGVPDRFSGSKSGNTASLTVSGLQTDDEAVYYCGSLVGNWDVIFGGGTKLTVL"
reported_metric = "Fold IC50 increase relative to wild-type"
observed = "0.5 fold"

[[record]]
binder = "PGT-130 (antibody, V domains shown) VH: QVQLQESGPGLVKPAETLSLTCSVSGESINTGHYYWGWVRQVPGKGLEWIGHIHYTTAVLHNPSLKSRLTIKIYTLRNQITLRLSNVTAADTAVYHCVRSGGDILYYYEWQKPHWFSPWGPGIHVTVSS VL: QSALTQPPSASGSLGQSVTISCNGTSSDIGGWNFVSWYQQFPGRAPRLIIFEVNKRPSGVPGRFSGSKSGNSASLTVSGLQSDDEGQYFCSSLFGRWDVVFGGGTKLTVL"
reported_metric = "Fold IC50 increase relative to wild-type"
observed = "2.6 fold"

[[record]]
binder = "PGT-135 (antibody, V domains shown) VH: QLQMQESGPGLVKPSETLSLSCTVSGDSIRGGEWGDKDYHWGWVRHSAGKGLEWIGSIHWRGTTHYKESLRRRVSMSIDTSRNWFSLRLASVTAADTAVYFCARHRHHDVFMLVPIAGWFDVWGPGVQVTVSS VL: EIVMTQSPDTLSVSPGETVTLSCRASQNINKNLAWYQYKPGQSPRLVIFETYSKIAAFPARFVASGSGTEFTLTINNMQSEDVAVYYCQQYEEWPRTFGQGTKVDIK"
reported_metric = "Fold IC50 increase relative to wild-type"
observed = "3.9 fold"

